# System: UACC-257 melanoma
# Procedure details: NCI tumour cell line growth inhibition, 48 h
Respond with y for TGI values of 30 µM and above, n for values below.

Check out these entries, answers already filled in.
{"Compound": "O=[N+]([O-])c1nccn1CCCNCCCn1ccnc1[N+](=O)[O-]", "Assigned class": "y"}
{"Compound": "CCC(C)C1NC(=O)CNC(=O)C2Cc3c([nH]c4cc(O)ccc34)S(=O)CC(NC(=O)CNC1=O)C(=O)NC(CC(=O)O)C(=O)N1CC(O)CC1C(=O)NC(C(C)C(O)CO)C(=O)N2 (stereo not given)", "Assigned class": "n"}

QUERY: Does the compound O=C1C2ON3c4ccccc4C(=O)C3(c3ccccc3)C2C(=O)N1c1ccccc1 (stereo not given) have recorded TGI that is 30 µM or more?
RESULT: y

QUERY: Similarly, CN(C)CCC1(C2=CCCC2)CC/C(=C\c2ccccc2Cl)C1=O (stereo not given) ?
RESULT: n

QUERY: Similarly, `C[C@@H]1CC[C@@H]2[C@@H](C)C[C@H]3[C@@H]4C(C)(C)OC(=O)[C@]4(C)C(=O)[C@@]23C1=O` ?
RESULT: y

QUERY: Similarly, `Cc1cc2c(cc1C)C(=O)/C(=N/Nc1ccc(F)cc1)CCO2` ?
RESULT: y

QUERY: Similarly, `COc1ncnc2c1cnn2Cc1cn(CCCCO)nn1` ?
RESULT: y

QUERY: Similarly, COC1(CC[C@H](C)COC2OC(CO)C(O)C(O)C2O)O[C@H]2C[C@H]3[C@@H]4CC=C5C[C@@H](OC6OC(CO)C(O)C(OC7OC(CO)C(O)C(O)C7O)C6OC6OC(C)C(O)C(O)C6O)CC[C@]5(C)[C@H]4CC[C@]3(C)[C@H]2[C@@H]1C (stereo not given in full) ?
RESULT: n

QUERY: Similarly, `CCCCN=C1OCc2[nH][nH]c(=O)c21` ?
RESULT: y

QUERY: Similarly, `O=C(O)CCSC(=S)Nc1cccc(F)c1` ?
RESULT: y

QUERY: Similarly, `Cc1cc(C)n(CN(Cn2nc(C)cc2C)c2ccccc2)n1` ?
RESULT: y

QUERY: Similarly, `O=C(Nc1ccc2c(c1)OCO2)C(=O)c1c[nH]c2cc(F)ccc12` ?
RESULT: n

QUERY: Similarly, `Cn1c(=O)oc2cc(Br)ccc21` ?
RESULT: y

QUERY: Similarly, `COC(=O)C1=C(C(=O)OC)C2OC1c1cc3ccccc3cc12` ?
RESULT: n

QUERY: Similarly, `COc1ccc2c(c1)C(N)=C(Cc1ccncc1)C2=O` ?
RESULT: y

QUERY: Similarly, `CC(=O)Oc1c2oc3cc(O)c(O)cc3c2c(OC(C)=O)c2oc3cc(O)c(O)cc3c12` ?
RESULT: y

QUERY: Similarly, O=C(c1ccccc1)c1c(CC(O)c2ccccc2)n(C(=O)c2ccccc2)c2ccccc12 (stereo not given) ?
RESULT: y

QUERY: Similarly, `CCOC(=O)c1c2cccccc2n2c(=O)cc(C)nc12` ?
RESULT: y
